target: Amyloid-beta precursor protein (Homo sapiens, UniProt P05067); assay: Inhibition of amyloid beta (unknown origin) aggregation by Thiazin-red R displacement fluorescence assay
Sequence (P05067 whole entry): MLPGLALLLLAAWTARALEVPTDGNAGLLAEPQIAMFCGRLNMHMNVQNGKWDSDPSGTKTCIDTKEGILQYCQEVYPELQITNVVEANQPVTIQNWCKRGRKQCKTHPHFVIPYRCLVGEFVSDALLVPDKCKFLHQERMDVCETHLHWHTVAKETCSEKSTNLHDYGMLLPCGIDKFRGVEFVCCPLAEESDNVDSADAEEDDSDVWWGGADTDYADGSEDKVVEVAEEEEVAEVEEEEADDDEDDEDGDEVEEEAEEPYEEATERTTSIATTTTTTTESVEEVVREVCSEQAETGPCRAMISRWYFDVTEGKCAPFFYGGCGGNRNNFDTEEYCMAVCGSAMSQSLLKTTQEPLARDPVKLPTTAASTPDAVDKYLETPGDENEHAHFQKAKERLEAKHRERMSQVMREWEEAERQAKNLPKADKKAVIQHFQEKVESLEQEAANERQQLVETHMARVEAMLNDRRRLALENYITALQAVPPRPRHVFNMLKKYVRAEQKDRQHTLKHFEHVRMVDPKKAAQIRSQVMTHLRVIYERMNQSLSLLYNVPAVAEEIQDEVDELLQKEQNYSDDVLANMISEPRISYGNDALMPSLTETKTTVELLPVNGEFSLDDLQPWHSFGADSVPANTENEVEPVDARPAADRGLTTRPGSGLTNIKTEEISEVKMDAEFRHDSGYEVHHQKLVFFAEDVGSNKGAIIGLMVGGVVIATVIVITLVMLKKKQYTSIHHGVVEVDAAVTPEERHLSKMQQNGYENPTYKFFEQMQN
pIC50: −log10 of the molar value.
ASSAY_ENDPOINT: pIC50

> print(dat)
                            compound.smiles  reading
1  COc1cc(/C=c2\sc3nc(-c4ccncc4C)cn3c2=O)cc(OC)c1O     7.49
2  COc1cc(/C=c2\sc3nc(-c4ccncc4C)cn3c2=O)ccc1O   < 5.00

Requested read-out: pIC50. Entry: COc1cc(/C=c2\sc3nc(-c4cccc(OC(F)(F)F)c4)cn3c2=O)cc(F)c1O
< 5.00
